test system: SK-BR-3; test: Antiproliferative activity against human SKBR3 cells; format: functional, cell-based
Square brackets hold non-standard residues; d marks the D form. Peptide text beside a SMILES is read from it. * marks the point of attachment. NH((S)CH(Me)CH2NHC2H4OH) = C[C@@H](CNCCO)N*; Gly(octyl) = CCCCCCCC[C@H](N)C(=O)O; Cha = N[C@@H](CC1CCCCC1)C(=O)O; Chg = N[C@H](C(=O)O)C1CCCCC1; Aib = CC(C)(N)C(=O)O; Butyryl = CCCC(=O)*; βAla = NCCC(=O)O
// reported IC50 per item
Number only, in nM; omit the unit.

CCCCCCCC[C@H](NC(=O)C(C)(C)NC(=O)C(C)(C)NC(=O)[C@@H](NC(=O)[C@@H]1CCCN1C(=O)CCC)C1CCCCC1)C(=O)N[C@@H](CC(C)C)C(=O)NC(C)(C)C(=O)N[C@@H](CC(C)C)C(=O)NCCC(=O)N[C@@H](C)CNCCO (Butyryl-P[Chg][Aib][Aib][Gly(octyl)]L[Aib]L[βAla]-{NH((S)CH(Me)CH2NHC2H4OH)})    21

# context switch: different compound, same IC50
Query block: Tell me its IC50 given CCCCCCCC[C@H](NC(=O)C(C)(C)NC(=O)C(C)(C)NC(=O)[C@H](CC1CCCCC1)NC(=O)[C@@H]1CCCN1C(=O)CCC)C(=O)N[C@@H](CC(C)C)C(=O)NC(C)(C)C(=O)N[C@@H](CC(C)C)C(=O)NCCC(=O)N[C@@H](C)CNCCO (Butyryl-P[Cha][Aib][Aib][Gly(octyl)]L[Aib]L[βAla]-{NH((S)CH(Me)CH2NHC2H4OH)}) as the entry.
Result block: 12

----------
Measured pIC50 values are reported for all entries that follow.
test system: SK-BR-3; assay: Antiproliferative activity against human SKBR3 cells; type: functional, cell-based
Square brackets hold non-standard residues; d marks the D form. Peptide text beside a SMILES is read from it. * marks the point of attachment. ξ: configuration not given here. Gly(1-adamantyl) = N[C@H](C(=O)O)C12CC3CC(CC(C3)C1)C2; Nva(5-pentanoyl) = CCCCC(=O)CCC[C@H](N)C(=O)O; NH((S)CH(Me)CH2NHC2H4OH) = C[C@@H](CNCCO)N*; Gly(octyl) = CCCCCCCC[C@H](N)C(=O)O; Aib = CC(C)(N)C(=O)O; Butyryl = CCCC(=O)*; ξP = O=C(O)C1CCCN1; βAla = NCCC(=O)O
Keep in mind that pIC50 stands for -log10 of concentration in molar terms.

CCCCCCCC[C@H](NC(=O)C(C)(C)NC(=O)C(C)(C)NC(=O)[C@H](CCCC(=O)CCCC)NC(=O)C1CCCN1C(=O)CCC)C(=O)N[C@@H](CC(C)C)C(=O)NC(C)(C)C(=O)N[C@@H](CC(C)C)C(=O)N[C@@H](C)C(=O)N[C@@H](C)CNCCO (stereo partly drawn) (Butyryl-[ξP][Nva(5-pentanoyl)][Aib][Aib][Gly(octyl)]L[Aib]LA-{NH((S)CH(Me)CH2NHC2H4OH)})    7.44

Query block: Name the recorded pIC50 of the compound listed here: CCCCCCCC[C@H](NC(=O)C(C)(C)NC(=O)C(C)(C)NC(=O)[C@@H](NC(=O)[C@@H]1CCCN1C(=O)CCC)C12CC3CC(CC(C3)C1)C2)C(=O)N[C@@H](CC(C)C)C(=O)NC(C)(C)C(=O)N[C@@H](CC(C)C)C(=O)NCCC(=O)N[C@@H](C)CNCCO (Butyryl-P[Gly(1-adamantyl)][Aib][Aib][Gly(octyl)]L[Aib]L[βAla]-{NH((S)CH(Me)CH2NHC2H4OH)})
Result block: 7.14

----------
Listed compounds paired with reported IC50
system: SK-BR-3; assay: Antiproliferative activity against human SKBR3 cells; assay type: functional, cell-based
Numbered stars: 1 amine (or outer) side, 2 acyl side, 3 side chain; on linkers, the order of the positions; unused ones are H or OH. Square brackets hold non-standard residues; d marks the D form. Peptide text beside a SMILES is read from it. * marks the point of attachment. ξ: configuration not given here. X1 = CCC(=O)C[C@H](O)C[C@@H](C)C[C@H](N[*:1])C(=O)[*:2]; Nva(5-pentanoyl) = CCCCC(=O)CCC[C@H](N)C(=O)O; NH((S)CH(Me)CH2NHC2H4OH) = C[C@@H](CNCCO)N*; Gly(octyl) = CCCCCCCC[C@H](N)C(=O)O; Aib = CC(C)(N)C(=O)O; Butyryl = CCCC(=O)*; ξP = O=C(O)C1CCCN1; βAla = NCCC(=O)O

Examples with their reported IC50 follow.
CCCCCCCC[C@H](NC(=O)[C@H](C)NC(=O)C(C)(C)NC(=O)[C@H](CCCC(=O)CCCC)NC(=O)C1CCCN1C(=O)CCC)C(=O)N[C@@H](CC(C)C)C(=O)NC(C)(C)C(=O)N[C@@H](CC(C)C)C(=O)NCCC(=O)N[C@@H](C)CNCCO (stereo partly drawn) (Butyryl-[ξP][Nva(5-pentanoyl)][Aib]A[Gly(octyl)]L[Aib]L[βAla]-{NH((S)CH(Me)CH2NHC2H4OH)})    24 nM
CCCCCCCC[C@H](NC(=O)C(C)(C)NC(=O)C(C)(C)NC(=O)[C@H](Cc1ccc(O)cc1)NC(=O)[C@@H]1CCCN1C(=O)CCC)C(=O)N[C@@H](CC(C)C)C(=O)NC(C)(C)C(=O)N[C@@H](CC(C)C)C(=O)NCCC(=O)N[C@@H](C)CNCCO (Butyryl-PY[Aib][Aib][Gly(octyl)]L[Aib]L[βAla]-{NH((S)CH(Me)CH2NHC2H4OH)})    155 nM
CCCCCCCC[C@H](NC(=O)C(C)(C)NC(=O)C(C)(C)NC(=O)[C@H](CCCC(=O)CCCC)NC(=O)C1CCCN1C(=O)CCC)C(=O)N[C@@H](CC(C)C)C(=O)N[C@@H](C)C(=O)N[C@@H](C)C(=O)NCCC(=O)N[C@@H](C)CNCCO (stereo partly drawn) (Butyryl-[ξP][Nva(5-pentanoyl)][Aib][Aib][Gly(octyl)]LAA[βAla]-{NH((S)CH(Me)CH2NHC2H4OH)})    > 1000 nM
CCCCCCCC[C@H](NC(=O)C(C)(C)NC(=O)C(C)(C)NC(=O)[C@H](Cc1ccccc1)NC(=O)[C@@H]1CCCN1C(=O)CCC)C(=O)N[C@@H](CC(C)C)C(=O)NC(C)(C)C(=O)N[C@@H](CC(C)C)C(=O)NCCC(=O)N[C@@H](C)CNCCO (Butyryl-PF[Aib][Aib][Gly(octyl)]L[Aib]L[βAla]-{NH((S)CH(Me)CH2NHC2H4OH)})    25 nM
CCCC(=O)N1CCC[C@H]1C(=O)N[C@@H](C[C@H](C)C[C@@H](O)CC(=O)CC)C(=O)NC(C)(C)C(=O)NC(C)(C)C(=O)N[C@@H](CC(C)C)C(=O)N[C@@H](CC(C)C)C(=O)NC(C)(C)C(=O)N[C@@H](CC(C)C)C(=O)NCCC(=O)N[C@@H](C)CNCCO (Butyryl-P[X1][Aib][Aib]LL[Aib]L[βAla]-{NH((S)CH(Me)CH2NHC2H4OH)})    > 1000 nM

Turning to the following compound.
Query block: Identify measured IC50 associated with CCCCCCCC[C@H](NC(=O)C(C)(C)NC(=O)C(C)(C)NC(=O)[C@H](CCCC(=O)CCCC)NC(=O)C1CCCN1C(=O)CCC)C(=O)N[C@@H](C)C(=O)NC(C)(C)C(=O)N[C@@H](CC(C)C)C(=O)NCCC(=O)N[C@@H](C)CNCCO (stereo partly drawn) (Butyryl-[ξP][Nva(5-pentanoyl)][Aib][Aib][Gly(octyl)]A[Aib]L[βAla]-{NH((S)CH(Me)CH2NHC2H4OH)})
Result block: 130 nM

----------
test system: SK-BR-3; test: Antiproliferative activity against human SKBR3 cells; type: functional, cell-based
Square brackets hold non-standard residues; d marks the D form. Peptide text beside a SMILES is read from it. * marks the point of attachment. NH((S)CH(Me)CH2NHC2H4OH) = C[C@@H](CNCCO)N*; Gly(octyl) = CCCCCCCC[C@H](N)C(=O)O; Aib = CC(C)(N)C(=O)O; Butyryl = CCCC(=O)*; βAla = NCCC(=O)O
Endpoint label: IC50 (µM)
# value in µM; strip the unit string

CCCCCCCC[C@H](NC(=O)C(C)(C)NC(=O)C(C)(C)NC(=O)C(C)(C)NC(=O)[C@@H]1CCCN1C(=O)CCC)C(=O)N[C@@H](CC(C)C)C(=O)NC(C)(C)C(=O)N[C@@H](CC(C)C)C(=O)NCCC(=O)N[C@@H](C)CNCCO (Butyryl-P[Aib][Aib][Aib][Gly(octyl)]L[Aib]L[βAla]-{NH((S)CH(Me)CH2NHC2H4OH)})    0.15

Next up:
Query block: Fill in IC50 for record CCCCCCCC[C@H](NC(=O)[C@@H]1CCCN1C(=O)CCC)C(=O)NC(C)(C)C(=O)NC(C)(C)C(=O)N[C@@H](CCCCCCCC)C(=O)N[C@@H](CC(C)C)C(=O)NC(C)(C)C(=O)N[C@@H](CC(C)C)C(=O)NCCC(=O)N[C@@H](C)CNCCO (Butyryl-P[Gly(octyl)][Aib][Aib][Gly(octyl)]L[Aib]L[βAla]-{NH((S)CH(Me)CH2NHC2H4OH)})
Result block: 0.015

FYI, the data here is from ChEMBL document CHEMBL4619722.
